meta.source: PubChem BioAssay (NCI)

system: NCI-H226 lung; test: NCI tumour cell line growth inhibition, 48 h
Recorded Metric: GI50

>>> reported("CC1(C)OB(c2ccc(N(CCOS(C)(=O)=O)CCOS(C)(=O)=O)cc2)OC1(C)C")
"9.02 µM"
>>> reported("C=CC(=O)N[C@@H]1CN(c2nc(Nc3cn(C)nc3OC)c3ncn(C)c3n2)C[C@H]1F")
"> 83 µM"
>>> reported("Cc1cc(S(=O)(=O)/N=C(\\N)Nc2cccc(O)c2)c(SCc2ccccc2)cc1Cl")
"24 µM"
>>> reported("COc1ccc(C(=O)/C=C/c2sc(Cl)nc2Cl)cc1")
"0.655 µM"

* * *

# TGI annotations
system: MOLT-4 leukemia; experiment: NCI tumour cell line growth inhibition, 48 h
Recorded Metric: TGI

>>> reported("O=C(Nc1ccccc1)c1cc2ccccc2c(N=Nc2cccc([N+](=O)[O-])c2)c1O")
"> 100 µM"
>>> reported("CCOC(=O)NN(C(=O)OCC)c1ccc(N=Nc2ccc(OC)cc2)n1C")
"> 100 µM"
>>> reported("Oc1cc(O)c2c(c1)O[C@H](c1ccc(O)c(O)c1)[C@@H](O)C2")
"> 100 µM"
>>> reported("CC(=O)Nc1ccccc1-c1nc2ccccc2nc1-c1ccccc1")
"> 100 µM"
>>> reported("CC(=O)Nc1ccc(NC(=O)CC(=O)Nc2ccc(NC(C)=O)cc2)cc1")
"> 100 µM"
>>> reported("Cc1c2cnccc2c(C)c2c1c1cc(O)ccc1n2C(C)C")
"1.26 µM"
>>> reported("COc1ccc(C(=O)/C=C/c2sc(Cl)nc2Cl)cc1")
"13.6 µM"
>>> reported("Cc1ccccc1/C=C/c1csnn1")
"> 100 µM"
>>> reported("Cc1ccc(S(=O)(=O)NC(=O)Nc2c(S(N)(=O)=O)cc(S(N)(=O)=O)c(Cl)c2Cl)cc1")
"> 100 µM"
>>> reported("CN1C(=O)N(C)C2(CCN(CC(CC3OCCO3)c3ccc(F)cc3)CC2)C1=O (stereo unspecified)")
"> 100 µM"
>>> reported("COc1ccccc1C1C2=C(COC2=O)Oc2cc3c(cc21)OCO3 (stereo unspecified)")
"> 100 µM"

* * *

test system: BT-549 breast; assay: NCI tumour cell line growth inhibition, 48 h
Recorded Metric: TGI

>>> reported("Cc1cc(F)c(C(=O)Nc2cccc(-c3nncn3C(C)C)n2)cc1-n1cnc(C2CC2)c1")
"54.8 µM"
>>> reported("COC(=O)c1cc(-c2ccc3ccccc3c2)[nH]c(=O)c1C#N")
"> 100 µM"
>>> reported("CN1CCN(CCCOc2cccc3nc(Nc4cc(Cl)cc(Cl)c4)ccc23)CC1")
"13.9 µM"
>>> reported("CCCCCC/C=C/C#CCCCCCCCC(=O)O")
"> 100 µM"
>>> reported("CC(=O)N1C(C(=O)NN2CCOCC2)CSC1c1ccccc1 (stereo unspecified)")
"> 100 µM"
>>> reported("c1ccc(-c2csc3c2-n2cccc2C3N2CCCC2)cc1 (stereo unspecified)")
"34.4 µM"
>>> reported("N=c1c2sc3nc4ccccc4n3c2ncn1Cc1ccccc1")
"> 100 µM"
>>> reported("CC(C)C[S+]1C2=C([O-])CC(C)(C)CC2=Nc2ccccc21 (stereo unspecified)")
"> 100 µM"
>>> reported("NC(Cc1ccc(O)cn1)C(=O)NC(C(=O)O)c1ccccc1 (stereo unspecified)")
"> 100 µM"
>>> reported("O=C1/C(=C/c2cccnc2)SC(=S)N1Cc1ccco1")
"> 100 µM"
>>> reported("N/C(=N\\N=C\\c1cc2ccccc2s1)c1cnccn1")
"> 100 µM"

* * *

Quick list: GI50 per entry.
system: RXF 393 renal; assay: NCI tumour cell line growth inhibition, 48 h
Recorded Metric: GI50

>>> reported("CNC(=O)c1cc(Oc2ccc3nc(NC(=O)Nc4ccc(CN5CCOCC5)c(C(F)(F)F)c4)sc3c2)ccn1")
"1.81 µM"
>>> reported("Nc1nc(N)c2c(n1)NC(c1sc(Cl)nc1Cl)CC(c1ccccc1)=N2 (configuration not stated)")
"2.48 µM"
>>> reported("Nc1nc(=O)n(C2CC(O)C(CO)O2)cc1F (configuration not stated)")
"> 57.8 µM"
>>> reported("CCN(C(=O)N1CCN(c2cc3c(cc2F)c(=O)c(C(=O)O)cn3C2CC2)CC1)c1nc(-c2ccccc2)cs1")
"2.52 µM"
>>> reported("Cc1cc(S(=O)(=O)/N=C(\\N)Nc2cccc(O)c2)c(SCc2ccccc2)cc1Cl")
"16.2 µM"
>>> reported("Cc1cc(F)c(C(=O)Nc2cccc(-c3nncn3C(C)C)n2)cc1-n1cnc(C2CC2)c1")
"20.6 µM"
>>> reported("CCn1cnc(C[C@H](NC(=O)[C@H](CCCCNC(=O)Nc2cc(C(F)(F)F)cc(C(F)(F)F)c2)NC(=O)Nc2cc(C(F)(F)F)cc(C(F)(F)F)c2)C(=O)OC)c1")
"4.24 µM"

* * *

test system: LXFL 529 NSCLC; experiment: NCI tumour cell line growth inhibition, 48 h
Examples of compounds with documented TGI follow.
Recorded Metric: TGI

>>> reported("CC(=O)NNc1nc(C)c(C(=O)NNC(=O)C(=O)Nc2ccc(Cl)c([N+](=O)[O-])c2)s1")
"> 100 µM"
>>> reported("O/N=C1/CCCC/C1=C/C=C/c1ccccc1")
"> 100 µM"
>>> reported("Cc1ccc2nc(NC(=O)C(=O)C(C(=O)c3ccc4ccccc4c3)C3OC(=O)c4ccccc43)sc2c1 (stereo not given)")
"19.2 µM"
>>> reported("COc1ccc(CN(CCN(C)C)c2ccccn2)cc1 (tested in a mixture with another compound)")
"> 100 µM"
>>> reported("Cc1ccccc1NC(=O)CC1C(=O)Nc2ccccc2S1=O (stereo not given)")
"> 100 µM"

* * *

system: SF-295 CNS; experiment: NCI tumour cell line growth inhibition, 48 h
Recorded Metric: TGI (µM)

>>> reported("Clc1ccc(-c2cc(-c3ccccc3)nc(N3CCN(CCCNc4ccnc5cc(Cl)ccc45)CC3)n2)cc1")
3.72
>>> reported("CCCCCCCCCCC(=O)CCCCCCC(=O)O")
48.7
>>> reported("O=C(NC1CCN(Cc2ccccc2)CC1)c1cc(-c2cccnc2)nc2ccc(Cl)cc12")
26
>>> reported("COc1ccccc1N1CCN(CCCCNC(=O)c2ccc([N+](=O)[O-])o2)CC1")
25.7
>>> reported("Cc1c2cnccc2c(C)c2c1c1cc(O)ccc1n2C(C)C")
5.35
>>> reported("CC(=O)Nc1ccc(-c2nnc(SCC(=O)Nc3cccc(C)c3)o2)cc1")
22.9

* * *

tested on: RPMI-8226 leukemia; test: NCI tumour cell line growth inhibition, 48 h
Recorded Metric: TGI

>>> reported("Nc1n[n+]([O-])c2cc([N+](=O)[O-])ccc2[n+]1[O-]")
"> 100 µM"
>>> reported("OCC#CCOCC#Cc1ccccc1C#CCOCC#CCO")
"35.3 µM"
>>> reported("COc1ccc2[nH]c(Cl)c(/C=C3/C(=O)Nc4ccccc43)c2c1")
"0.591 µM"
>>> reported("CC1(C)OB(c2ccc(N(CCOS(C)(=O)=O)CCOS(C)(=O)=O)cc2)OC1(C)C")
"> 72.5 µM"
>>> reported("CCOC(=O)c1c(N2CCCC2)[nH]c(=O)c(C(c2c(O)c(C(=O)OCC)c(N3CCCC3)[nH]c2=O)C(C)C)c1O")
"> 100 µM"
>>> reported("O/N=C1/CCCC/C1=C/C=C/c1ccccc1")
"71.7 µM"
>>> reported("CCOC(=O)C1(CC(=O)O)CCCC1=O (stereo not given)")
"> 100 µM"
>>> reported("N#CCCN(CCC#N)c1ccc(/C=C(/NC(=O)c2cc([N+](=O)[O-])ccc2Cl)C(=O)N=[N+]=[N-])cc1")
"> 100 µM"
>>> reported("O=C1C=CC2(CCCCCCC2=O)CC1 (stereo not given)")
"> 100 µM"
>>> reported("O=C(Nc1ccc(OS(=O)(=O)c2ccc(F)cc2)cc1)C12CC3CC(CC(C3)C1)C2")
"> 100 µM"

* * *

tested on: RXF 393 renal; experiment: NCI tumour cell line growth inhibition, 48 h
Recorded Metric: log10 of TGI (log10 of the value in µM)

>>> reported("O=[N+]([O-])c1cc(C2(N3CCCCC3)CCCCC2)sc1Br")
1.12
>>> reported("COc1ccc2c(c1)CC[C@@H]1[C@@H]2CC[C@]2(C)/C(=N/OCCN3CCCC3)CC[C@@H]12")
0.62
>>> reported("O/N=C1/CCCC/C1=C/C=C/c1ccccc1")
1.62
>>> reported("CCN(C(=O)N1CCN(c2cc3c(cc2F)c(=O)c(C(=O)O)cn3C2CC2)CC1)c1nc(-c2ccccc2)cs1")
0.95
>>> reported("Cc1c2cnccc2c(C)c2c1c1cc(O)ccc1n2C(C)C")
0.38
>>> reported("Nc1nc(N)c2c(n1)NC(c1sc(Cl)nc1Cl)CC(c1ccccc1)=N2 (stereo unspecified)")
0.98
